Assay: activity coefficient (dimensionless); of the first substance listed, at infinite dilution; xn = mol fraction of the nth substance listed
Conditions: 303.25 K; 101.33 kPa; Liquid; Chromatography; x1 = 0
property_label: activity coefficient

CCOC(C)=O [ethyl acetate] + O: 76.5
CCCC(C)=O [pentan-2-one] + O: 105

(A) COC(C)(C)C [2-methoxy-2-methylpropane] + O
(B) CCC(C)(C)OC [2-methoxy-2-methylbutane] + O
(C) CCCOCCC [dipropyl ether] + O
Ask: Parameters: sort_field (activity coefficient), sort_dir (desc). Returns: the labels arranged in the requested order.
Result: C, B, A

---

Assay: activity coefficient (dimensionless); of the first substance listed, at infinite dilution; xn = mol fraction of the nth substance listed
Conditions: 323.25 K; 101.33 kPa; Liquid; Chromatography; x1 = 0
property_label: activity coefficient

Known results for compounds:
CCCOCCC [dipropyl ether] + O: 3230
COC=O [methyl methanoate] + O: 19.5
CCCOC(C)=O [propyl ethanoate] + O: 341
CCCC(C)=O [pentan-2-one] + O: 128
CC(C)=O [acetone] + O: 9.81
CCOCC [diethyl ether] + O: 135
CCC(C)(C)OC [2-methoxy-2-methylbutane] + O: 942
COC(C)=O [methyl ethanoate] + O: 29.8

(1) CCO [ethanol] + O
(2) CC(C)OC(C)C [diisopropyl ether] + O
Ask: Quick one: lower activity coefficient, 1 or 2 ? Write down the label of the entry you select.
Result: 1
